- system: 11β-HSD1 (Mus musculus)
- Construct: endogenous in cells
- Sequence (P50172 whole entry): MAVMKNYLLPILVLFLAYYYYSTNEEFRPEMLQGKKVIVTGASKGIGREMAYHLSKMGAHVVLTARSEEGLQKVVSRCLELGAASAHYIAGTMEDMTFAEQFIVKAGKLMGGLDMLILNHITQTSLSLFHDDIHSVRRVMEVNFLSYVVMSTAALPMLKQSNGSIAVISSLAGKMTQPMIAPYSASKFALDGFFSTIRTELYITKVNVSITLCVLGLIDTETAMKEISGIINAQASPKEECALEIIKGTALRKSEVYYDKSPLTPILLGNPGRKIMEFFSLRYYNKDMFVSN
- assay_info: Cellular assay, 11β-HSD1 activity in differentiated 3T3-L1 cells
- condition_label: 4 hour pre-incubation, read-out: [C2] HSD1 cellular 3T3-L1 Score
Reported IC50 is given for each of the following compounds.
attribute_measured: IC50

compound="O=C1C(Cc2cc(C(F)(F)F)cc(C(F)(F)F)c2)CCN1C1C2CC3CC(C2)CC1C3 (stereo not drawn) [Compound 9]" value="> 10000 nM"
compound="CC1(Cc2ccccc2)CCN([C@@H]2CC[C@]3(O)CC4CC3[C@H]2C4)C1=O (stereo partly drawn) [Compound 38]" value="< 1000 nM"
compound="COc1cccc(CC2(C)CCN(C3C4CC5CC(C4)CC3C5)C2=O)c1 (stereo not drawn) [Compound 29]" value="< 1000 nM"
compound="O=C1N(C2C3CC4CC(C3)CC2C4)C2CCC1(Cc1ccccc1)CC2 (stereo not drawn) [Compound 36]" value="< 1000 nM"
compound="COc1cc(CC2CCN(C3C4CC5CC(C4)CC3C5)C2=O)cc(OC)c1 (stereo not drawn) [Compound 8]" value="< 1000 nM"
compound="Cc1cccc(CC2(C)CCN([C@@H]3CC[C@]4(O)CC5CC4[C@H]3C5)C2=O)c1F (stereo partly drawn) [Compound 40]" value="< 1000 nM"
compound="O=C1C(Cc2ccccc2)CCN1C1C2CC3CC(C2)CC1C3 (stereo not drawn) [Compound 33]" value="< 1000 nM"
compound="Cc1cccc(CC2CCN(C3C4CC5CC(C4)CC3C5)C2=O)c1F (stereo not drawn) [Compound 1]" value="< 1000 nM"
compound="CC1(c2ccccc2)CCN(C2C3CC4CC(C3)CC2C4)C1=O (stereo not drawn) [Compound 35]" value="< 1000 nM"
compound="O=C1C(Cc2ccccc2)CCN1[C@@H]1CC[C@]2(O)CC3CC2[C@H]1C3 (stereo partly drawn) [Compound 37]" value="< 1000 nM"
compound="N#Cc1cccc(CC2CCN(C3C4CC5CC(C4)CC3C5)C2=O)c1 (stereo not drawn) [Compound 6]" value="< 1000 nM"
compound="COc1cc(CC2(C)CCCN(C3C4CC5CC(C4)CC3C5)C2=O)cc(OC)c1 (stereo not drawn) [Compound 28]" value="> 10000 nM"

###

- system: 11β-HSD2 (Homo sapiens)
- Sequence (P80365 whole entry): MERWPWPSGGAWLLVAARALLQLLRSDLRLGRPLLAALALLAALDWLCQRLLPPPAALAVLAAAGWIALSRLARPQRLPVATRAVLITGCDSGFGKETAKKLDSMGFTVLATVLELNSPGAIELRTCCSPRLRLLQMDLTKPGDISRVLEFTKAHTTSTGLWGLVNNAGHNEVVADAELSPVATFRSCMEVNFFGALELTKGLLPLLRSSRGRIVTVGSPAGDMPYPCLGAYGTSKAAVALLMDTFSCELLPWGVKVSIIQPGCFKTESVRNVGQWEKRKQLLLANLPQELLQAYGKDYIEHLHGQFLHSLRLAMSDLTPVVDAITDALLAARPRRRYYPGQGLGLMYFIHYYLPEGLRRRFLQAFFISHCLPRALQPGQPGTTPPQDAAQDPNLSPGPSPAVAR
- assay_info: Enzymatic assay, 11β-HSD2 dependent dehydrogenase activity
- Type: biochemical
- condition_label: recombinant protein, 100 nM cortisol, 45 minutes at 37° C.; read-out: [C1] HSD2-prot Dehydro Score
pIC50: −log10 of the molar value.
attribute_measured: pIC50

compound="CC1(Cc2ccccc2)CCN([C@@H]2CC[C@]3(O)CC4CC3[C@H]2C4)C1=O (stereo partly drawn) [Compound 38]" value="< 5.00"
compound="Cc1cccc(CC2CCN([C@@H]3CC[C@]4(O)CC5CC4[C@H]3C5)C2=O)c1F (stereo partly drawn) [Compound 39]" value="< 5.00"
compound="Cc1cccc(CC2(C)CCN([C@@H]3CC[C@]4(O)CC5CC4[C@H]3C5)C2=O)c1F (stereo partly drawn) [Compound 40]" value="< 5.00"

###

- system: 11β-HSD1 (Mus musculus)
- Construct: endogenous in cells
- assay_info: Cellular assay, 11β-HSD1 activity in differentiated 3T3-L1 cells
- condition_label: 4 hour pre-incubation, read-out: [C2] HSD1 cellular 3T3-L1 Score
pIC50: −log10 of the molar value.
attribute_measured: pIC50

molecule="O=C1C(Cc2ccc(F)cc2)CCN1C1C2CC3CC(C2)CC1C3 (centres unmarked)" value="> 6.00"
molecule="Cc1cc(C)cc(CC2(C)CCN(C3C4CC5CC(C4)CC3C5)C2=O)c1 (centres unmarked)" value="> 6.00"
molecule="COc1cc(CC2CCCN(C3C4CC5CC(C4)CC3C5)C2=O)cc(OC)c1 (centres unmarked)" value="> 6.00"
molecule="COc1cccc(CC2(Cc3cccc(OC)c3)CCCN(C3C4CC5CC(C4)CC3C5)C2=O)c1 (centres unmarked)" value="< 5.00"
molecule="O=C1C(Cc2cccc(C(F)(F)F)c2F)CCN1C1C2CC3CC(C2)CC1C3 (centres unmarked)" value="> 6.00"
